Taken from paper PMC9386795.

TARGET_OR_SYSTEM: PA ATP synthase (Pseudomonas aeruginosa, UniProt Q9HT15)
TEST: ATP synthesis assay with PA inverted membrane vesicles
Type: biochemical
TEST_PARAMETERS: 128 μg/mL compound
PROPERTY_NAME: extent of inhibition of ATP synthesis activity at highest concentration

// known answers, use as guide
COMPOUND	REPORTED_VALUE
COC(=O)[C@H](Cc1c[nH]c2ccccc12)NCc1cc2ccccc2nc1OC [Compound 18]	complete inhibition
COC(=O)[C@H](Cc1ccc(O)cc1)NCc1cc2ccccc2nc1SC [Compound 22]	complete inhibition
COC(=O)[C@H](Cc1c[nH]c2ccccc12)NCc1cc2ccccc2nc1SC [Compound 19]	not complete
COC(=O)[C@@H](NCc1cc2ccccc2nc1OCc1ccccc1)C(C)C [Compound 15]	not complete

Continue with the compound presented below.
So what does the record say about extent of inhibition of ATP synthesis activity at highest concentration for COC(=O)[C@@H](CCSC)NCc1cc2ccccc2nc1SC [Compound 17] ?
not complete

====

TARGET_OR_SYSTEM: PA ATP synthase (Pseudomonas aeruginosa, UniProt Q9HT15)
TEST: ATP synthesis assay with PA inverted membrane vesicles
PROPERTY_NAME: IC50

IC50 for COc1nc2ccccc2cc1/C=N/NC(=O)c1ccccc1 ?
6.55 to 55.7 µM
